tested on: A. niger MMX 0624 ATCC 16888; assay: MIC/MEC assay (CLSI microdilution); type: cell-based; conditions: Aspergillus niger, ATCC16888, 48 h, RPMI plus 0.002% Tween-80, read-out: MIC
Numbered stars: 1 amine (or outer) side, 2 acyl side, 3 side chain; on linkers, the order of the positions; unused ones are H or OH. Square brackets hold non-standard residues; d marks the D form. Peptide text beside a SMILES is read from it. X24 = CN([C@@H](Cc1cccc(-c2ccnc(N3CCOCC3)c2)c1)C(=O)[*:2])[*:1]; X17 = CN([C@@H](Cc1cccc(-c2cnc3ccccc3c2)c1)C(=O)[*:2])[*:1]; Hmp(2R,3S) = CC[C@H](C)[C@@H](O)C(=O)O; NMeVal(β-OH) = CN[C@H](C(=O)O)C(C)(C)O; NMeV = CN[C@H](C(=O)O)C(C)C
propertyMeasured: MIC (µg/mL)
Give bare numbers, in µg/mL.

I have 2 compounds here; please give me MIC for each one.
1. CC[C@H](C)[C@@H]1NC(=O)[C@@H]2CCCN2C(=O)[C@H](Cc2cccc(-c3ccnc(N4CCOCC4)c3)c2)N(C)C(=O)[C@H](Cc2ccccc2)NC(=O)[C@H](C(C)C)N(C)C(=O)[C@@H]([C@@H](C)CC)OC(=O)[C@H](C(C)(C)O)N(C)C(=O)[C@H](CC(C)C)NC(=O)[C@H](C(C)C)N(C)C1=O [Compound 21] (cyclo(F[X24]PI[NMeV]L[NMeVal(β-OH)][Hmp(2R,3S)][NMeV]))
2. CC[C@H](C)[C@@H]1NC(=O)[C@@H]2CCCN2C(=O)[C@H](Cc2cccc(-c3cnc4ccccc4c3)c2)N(C)C(=O)[C@H](Cc2ccccc2)NC(=O)[C@H](C(C)C)N(C)C(=O)[C@@H]([C@@H](C)CC)OC(=O)[C@H](C(C)(C)O)N(C)C(=O)[C@H](CC(C)C)NC(=O)[C@H](C(C)C)N(C)C1=O [Compound 27] (cyclo(F[X17]PI[NMeV]L[NMeVal(β-OH)][Hmp(2R,3S)][NMeV]))

1: 0.25; 2: 0.06

----------
tested on: A. fumigatus MMX 5280 ATCC MYA-3626; assay: MIC/MEC assay (CLSI microdilution); type: cell-based, Aspergillus fumigatus; details: Aspergillus fumigatus, 48 h, RPMI plus 0.002% Tween-80, read-out: MIC
Numbered stars: 1 amine (or outer) side, 2 acyl side, 3 side chain; on linkers, the order of the positions; unused ones are H or OH. Square brackets hold non-standard residues; d marks the D form. Peptide text beside a SMILES is read from it. X35 = CN([C@@H](Cc1cccc(-c2ccc(-n3c4ccccc4c4ccccc43)cc2)c1)C(=O)[*:2])[*:1]; X1 = CC(C)N1CCN(c2ccc(-c3cccc(C[C@@H](C(=O)[*:2])N(C)[*:1])c3)cc2)CC1; X4 = CN1CCN(c2cc(-c3cccc(C[C@@H](C(=O)[*:2])N(C)[*:1])c3)ccn2)CC1; X7 = CC(C)N1CCN(c2ccc(-c3cccc(C[C@H](N[*:1])C(=O)[*:2])c3)cc2)CC1; X9 = CN1CCN(c2cccc(-c3cccc(C[C@@H](C(=O)[*:2])N(C)[*:1])c3)n2)CC1; X24 = CN([C@@H](Cc1cccc(-c2ccnc(N3CCOCC3)c2)c1)C(=O)[*:2])[*:1]; X28 = CN([C@@H](Cc1cccc(-c2ccc(C(F)(F)F)cc2)c1)C(=O)[*:2])[*:1]; X20 = CN([C@@H](Cc1cccc(-c2cnn(C3CCCC3)c2)c1)C(=O)[*:2])[*:1]; X22 = CN([C@@H](Cc1cccc(-c2cncc3ccccc23)c1)C(=O)[*:2])[*:1]; X27 = CN([C@@H](Cc1cccc(-c2cccc3ccccc23)c1)C(=O)[*:2])[*:1]; X32 = CN([C@@H](Cc1cccc(-c2cccc(F)c2)c1)C(=O)[*:2])[*:1]; Hmp(2R,3S) = CC[C@H](C)[C@@H](O)C(=O)O; NMeVal(β-OH) = CN[C@H](C(=O)O)C(C)(C)O; NMeV = CN[C@H](C(=O)O)C(C)C
Consider the following compounds; for each one, report its MIC.

These solved cases illustrate the format of a correct answer.
CC[C@H](C)[C@@H]1NC(=O)[C@@H]2CCCN2C(=O)[C@H](Cc2cccc(-c3cccc(N4CCN(C)CC4)n3)c2)N(C)C(=O)[C@H](Cc2ccccc2)NC(=O)[C@H](C(C)C)N(C)C(=O)[C@@H]([C@@H](C)CC)OC(=O)[C@H](C(C)(C)O)N(C)C(=O)[C@H](CC(C)C)NC(=O)[C@H](C(C)C)N(C)C1=O [Compound 33] (cyclo(F[X9]PI[NMeV]L[NMeVal(β-OH)][Hmp(2R,3S)][NMeV])) = 0.25 µg/mL
CC[C@H](C)[C@@H]1NC(=O)[C@@H]2CCCN2C(=O)[C@H](Cc2cccc(-c3cnn(C4CCCC4)c3)c2)N(C)C(=O)[C@H](Cc2ccccc2)NC(=O)[C@H](C(C)C)N(C)C(=O)[C@@H]([C@@H](C)CC)OC(=O)[C@H](C(C)(C)O)N(C)C(=O)[C@H](CC(C)C)NC(=O)[C@H](C(C)C)N(C)C1=O [Compound 12] (cyclo(F[X20]PI[NMeV]L[NMeVal(β-OH)][Hmp(2R,3S)][NMeV])) = > 64 µg/mL
CC[C@H](C)[C@@H]1NC(=O)[C@@H]2CCCN2C(=O)[C@H](Cc2cccc(-c3ccc(C(F)(F)F)cc3)c2)N(C)C(=O)[C@H](Cc2ccccc2)NC(=O)[C@H](C(C)C)N(C)C(=O)[C@@H]([C@@H](C)CC)OC(=O)[C@H](C(C)(C)O)N(C)C(=O)[C@H](CC(C)C)NC(=O)[C@H](C(C)C)N(C)C1=O [Compound 3] (cyclo(F[X28]PI[NMeV]L[NMeVal(β-OH)][Hmp(2R,3S)][NMeV])) = > 64 µg/mL
CC[C@H](C)[C@@H]1NC(=O)[C@@H]2CCCN2C(=O)[C@H](Cc2cccc(-c3ccnc(N4CCOCC4)c3)c2)N(C)C(=O)[C@H](Cc2ccccc2)NC(=O)[C@H](C(C)C)N(C)C(=O)[C@@H]([C@@H](C)CC)OC(=O)[C@H](C(C)(C)O)N(C)C(=O)[C@H](CC(C)C)NC(=O)[C@H](C(C)C)N(C)C1=O [Compound 21] (cyclo(F[X24]PI[NMeV]L[NMeVal(β-OH)][Hmp(2R,3S)][NMeV])) = > 64 µg/mL
CC[C@H](C)[C@@H]1NC(=O)[C@@H]2CCCN2C(=O)[C@H](Cc2cccc(-c3cccc(F)c3)c2)N(C)C(=O)[C@H](Cc2ccccc2)NC(=O)[C@H](C(C)C)N(C)C(=O)[C@@H]([C@@H](C)CC)OC(=O)[C@H](C(C)(C)O)N(C)C(=O)[C@H](CC(C)C)NC(=O)[C@H](C(C)C)N(C)C1=O [Compound 7] (cyclo(F[X32]PI[NMeV]L[NMeVal(β-OH)][Hmp(2R,3S)][NMeV])) = > 64 µg/mL

I have 5 compounds here; please give me MIC for each one.
1. CC[C@H](C)[C@@H]1NC(=O)[C@@H]2CCCN2C(=O)[C@H](Cc2cccc(-c3ccc(-n4c5ccccc5c5ccccc54)cc3)c2)N(C)C(=O)[C@H](Cc2ccccc2)NC(=O)[C@H](C(C)C)N(C)C(=O)[C@@H]([C@@H](C)CC)OC(=O)[C@H](C(C)(C)O)N(C)C(=O)[C@H](CC(C)C)NC(=O)[C@H](C(C)C)N(C)C1=O [Compound 8] (cyclo(F[X35]PI[NMeV]L[NMeVal(β-OH)][Hmp(2R,3S)][NMeV]))
2. CC[C@H](C)[C@@H]1NC(=O)[C@@H]2CCCN2C(=O)[C@H](Cc2cccc(-c3ccnc(N4CCN(C)CC4)c3)c2)N(C)C(=O)[C@H](Cc2ccccc2)NC(=O)[C@H](C(C)C)N(C)C(=O)[C@@H]([C@@H](C)CC)OC(=O)[C@H](C(C)(C)O)N(C)C(=O)[C@H](CC(C)C)NC(=O)[C@H](C(C)C)N(C)C1=O [Compound 15] (cyclo(F[X4]PI[NMeV]L[NMeVal(β-OH)][Hmp(2R,3S)][NMeV]))
3. CC[C@H](C)[C@@H]1NC(=O)[C@@H]2CCCN2C(=O)[C@H](Cc2cccc(-c3cncc4ccccc34)c2)N(C)C(=O)[C@H](Cc2ccccc2)NC(=O)[C@H](C(C)C)N(C)C(=O)[C@@H]([C@@H](C)CC)OC(=O)[C@H](C(C)(C)O)N(C)C(=O)[C@H](CC(C)C)NC(=O)[C@H](C(C)C)N(C)C1=O [Compound 29] (cyclo(F[X22]PI[NMeV]L[NMeVal(β-OH)][Hmp(2R,3S)][NMeV]))
4. CC[C@H](C)[C@@H]1NC(=O)[C@@H]2CCCN2C(=O)[C@H](Cc2cccc(-c3cccc4ccccc34)c2)N(C)C(=O)[C@H](Cc2ccccc2)NC(=O)[C@H](C(C)C)N(C)C(=O)[C@@H]([C@@H](C)CC)OC(=O)[C@H](C(C)(C)O)N(C)C(=O)[C@H](CC(C)C)NC(=O)[C@H](C(C)C)N(C)C1=O [Compound 9] (cyclo(F[X27]PI[NMeV]L[NMeVal(β-OH)][Hmp(2R,3S)][NMeV]))
5. CC[C@H](C)[C@@H]1NC(=O)[C@@H]2CCCN2C(=O)[C@H](Cc2cccc(-c3ccc(N4CCN(C(C)C)CC4)cc3)c2)N(C)C(=O)[C@H](Cc2cccc(-c3ccc(N4CCN(C(C)C)CC4)cc3)c2)NC(=O)[C@H](C(C)C)N(C)C(=O)[C@@H]([C@@H](C)CC)OC(=O)[C@H](C(C)(C)O)N(C)C(=O)[C@H](CC(C)C)NC(=O)[C@H](C(C)C)N(C)C1=O [Compound 31] (cyclo(I[NMeV]L[NMeVal(β-OH)][Hmp(2R,3S)][NMeV][X7][X1]P))

["> 64 µg/mL", "0.25 µg/mL", "> 64 µg/mL", "> 64 µg/mL", "2 µg/mL"]

// provenance: patent US11066447B2
